System: A2780 (human ovarian carcinoma) cell line
assayNotes: Antiproliferative activity, MTS assay, A2780
Type: cell-based
conditionsUsed: Table S3; values with * calculated taking fibroblast IC50 as 100 µM (minimal value)
Could you mark each record Criterion met if its Selectivity index (SI) of ligands, A2780 falls strictly under 3, and Criterion not met if it equals or exceeds it?

Below are worked cases with known answers.
Cc1ccnc(-c2cc(C)ccn2)c1 ... Criterion met
c1cnc2c(c1)ccc1cccnc12 ... Criterion not met
O=[C]=[Co]([I])([I])[CH]1C=CC=C1 [[CoCp(CO)I2]] ... Criterion met
Nc1cc2cccnc2c2ncccc12 ... Criterion not met

Prompt: Regarding c1ccc(P(c2ccccc2)c2ccccc2)cc1 , kindly confirm whether its Selectivity index (SI) of ligands, A2780 is beneath 3.
Response: Criterion met
